- Test system: HepG2
- experiment: GSK_TCMDC: Percent inhibition of human HepG2 cell line. Test compounds present at 10uM.
- Format: functional
quantity: Inhibition (%)
Give your result in % as a bare value.

>  <compound>
O=C(NNC(=O)c1ccc(CCN2CCC(c3nc(COCC(F)(F)F)c(-c4ccc(F)cc4)o3)CC2)cc1)Nc1ccc(Oc2ccccc2)cc1

>  <assayed-target>
HepG2

>  <numeric-value>
38

$$$$
>  <compound>
Cc1cc(-c2ccc3c(c2)CC[C@@H](N[C@@H](C)c2ccccc2)C3)cnc1N.Cl

>  <assayed-target>
HepG2

>  <numeric-value>
3

$$$$
>  <compound>
CCC1CN2CCc3c([nH]c4ccc(OC)cc34)C2CC1CC1NCCc2cc(OC)c(OC)cc21.Cl (centres undefined)

>  <assayed-target>
HepG2

>  <numeric-value>
17

$$$$

Would you mind telling me what Inhibition value was observed for COc1ccc2nccc([C@@H](O)CN3CCC(NCc4nc5c(cc4Cl)OCC(=O)N5)C(F)C3)c2c1.Cl (some centres undefined) ?
4

Would you mind telling me what Inhibition value was observed for CCOc1ccc(NC(=O)c2cn3nc(-c4ccc(OCC)cc4)cc3nc2C2CCNCC2)cc1.Cl ?
36

Would you mind telling me what Inhibition value was observed for COc1cccc(Cc2cnc3nc(N)nc(N)c3c2C)c1 ?
57

Would you mind telling me what Inhibition value was observed for Cc1nnsc1C(=O)Nc1cccc(-c2ccc(-c3nc4cc(C(F)(F)F)ccc4[nH]3)cc2)c1 ?
62

Would you mind telling me what Inhibition value was observed for Cc1ccc(-c2cnc3[nH]cc(-c4ccc(C(=O)O)c(C)c4)c3c2)cc1C.O=C(O)C(F)(F)F ?
37

Would you mind telling me what Inhibition value was observed for O=C(O)C(F)(F)F.O=S(=O)(NCCN1CCCC1)c1cccc(-c2ccccc2CNC2Cc3ccccc3C2)c1 ?
35

---

Let's look at some compounds and their measured Inhibition.
- System: HepG2
- experiment: GSK_TCMDC: Percent inhibition of human HepG2 cell line. Test compounds present at 10uM.
- Format: functional
Give your result in % as a bare value.

Below, each entry is followed by its recorded Inhibition result.
>  <compound>
CCN1CCN(c2ccc(Nc3c4ccccc4nc4ccccc34)cc2)CC1

>  <numeric-value>
24

$$$$
>  <compound>
OCCN1CCN(c2ccc(Nc3ccnc4cc5ccccc5cc34)cc2)CC1

>  <numeric-value>
98

$$$$
>  <compound>
COC(=O)c1ccc2nc(-c3ccc(/C=C/C(=O)NCc4ccc(Cl)c(Cl)c4)cc3)[nH]c2c1

>  <numeric-value>
13

$$$$

Would you mind telling me what Inhibition value was observed for O=[N+]([O-])c1ccc(-n2nc(-c3cccnc3)n(Cc3ccco3)c2=S)c(Cl)c1 ?
13

Would you mind telling me what Inhibition value was observed for COc1ccc(NC(=O)[C@H](CC(C)C)Nc2cc(C)nc(NCc3ccccc3C)n2)cc1.O=C(O)C(F)(F)F ?
12

Would you mind telling me what Inhibition value was observed for CN(C)CCCc1cc(NC(=O)Nc2cccc(Cl)c2Cl)ccc1I.Cl ?
12

Would you mind telling me what Inhibition value was observed for Oc1cc2c(cc1CN1CCN(Cc3ccc(Cl)s3)CC1)CCC2 ?
7

Would you mind telling me what Inhibition value was observed for CC(C)c1ccc(N(CC(=O)N/N=C/c2ccc(C(F)(F)F)cc2)S(=O)(=O)c2ccc(C(F)(F)F)cc2)cc1 ?
2

Would you mind telling me what Inhibition value was observed for CCCCCCc1c(C)nc2cc(OC)ccc2c1O ?
10

Would you mind telling me what Inhibition value was observed for O=C(Nc1ccc(OC2CCN(Cc3ccsc3)C2)c(Cl)c1)c1cccs1.O=C(O)C(F)(F)F (stereo not given) ?
0

Would you mind telling me what Inhibition value was observed for N#Cc1ccc(N2CCN(Cc3cccc(-c4ccc(-c5nc6cc(C(F)(F)F)ccc6[nH]5)cc4)c3)CC2)nc1.O=C(O)C(F)(F)F ?
39

Would you mind telling me what Inhibition value was observed for NC1=NC(c2ccccc2)(c2ccccc2)C(=O)N1Cc1ccccc1Br.O=CO ?
36

Would you mind telling me what Inhibition value was observed for CCOc1ccc(C(C)NC(=O)Cc2ccccc2F)cc1OCC (stereo not given) ?
15

Would you mind telling me what Inhibition value was observed for Cc1ccc(CN2CCC(Oc3cccc(NC(=O)c4ccc(C(F)(F)F)cc4)c3)CC2)cc1.O=C(O)C(F)(F)F ?
37

Would you mind telling me what Inhibition value was observed for CC(C)c1sc(-c2ccc(C(C)(C)C)cc2)nc1C(=O)NCCCN1CCCC1=O ?
0

Would you mind telling me what Inhibition value was observed for Br.N=C1N=C(N)NC2(CCCCC2)N1OCCCOc1cc(Cl)c(Cl)cc1Cl ?
62

Would you mind telling me what Inhibition value was observed for O=C(O)C(F)(F)F.O=S(=O)(NCCN1CCCC1)c1ccc(-c2ccc(CNCc3ccsc3)cc2)cc1F ?
27
